B1: TPR 5TU (parent)
chain: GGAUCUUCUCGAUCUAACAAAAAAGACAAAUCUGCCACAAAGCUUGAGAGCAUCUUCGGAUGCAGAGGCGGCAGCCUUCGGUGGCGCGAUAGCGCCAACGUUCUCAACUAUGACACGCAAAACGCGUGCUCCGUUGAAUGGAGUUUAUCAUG

Variants of: B1
Experiment: polymerase ribozyme fitness, log enrichment relative to wild type (log ratio); higher = more active; in vitro selection for triplet polymerase activity
Fewer inactive variants are shown than the library holds.
# reported polymerase ribozyme fitness (log ratio); entries follow
measurement_type: polymerase ribozyme fitness (log ratio)

[[record]]
mutant_id = "A22G C36U C87U"
modifier_sign = "="
value_observed = -3.06

[[record]]
mutant_id = "U15G A20U A37G U45A G50C G70U C95U C118G G141C A147C G152A"
modifier_sign = "≤"
value_observed = -4.2

[[record]]
mutant_id = "A29U A39U U55A C79A C93G"
modifier_sign = "≤"
value_observed = -4.2

[[record]]
mutant_id = "G59A U78A G92U C96A C114U A121U"
modifier_sign = "≤"
value_observed = -4.2

[[record]]
mutant_id = "A52U G86U U104C"
modifier_sign = "="
value_observed = -3.56

[[record]]
mutant_id = "A64C G65A G84U C116G U139C"
modifier_sign = "≤"
value_observed = -4.2

[[record]]
mutant_id = "U9C A22C C54U G71U G84A C95A A98U C108A C114U A115C"
modifier_sign = "≤"
value_observed = -4.2

[[record]]
mutant_id = "A37U A52C A73U G86A C96A C108G G133A G141A"
modifier_sign = "≤"
value_observed = -4.2

[[record]]
mutant_id = "U4C C35G C96U"
modifier_sign = "≤"
value_observed = -4.2

[[record]]
mutant_id = "A3G A16U U53A C75U G92U"
modifier_sign = "="
value_observed = -3.54

[[record]]
mutant_id = "A26C G42A A107C"
modifier_sign = "≤"
value_observed = -4.2

[[record]]
mutant_id = "C32G U61A G92U C131U"
modifier_sign = "≤"
value_observed = -4.2

[[record]]
mutant_id = "A73G C118G C132G"
modifier_sign = "≤"
value_observed = -4.2

[[record]]
mutant_id = "C79A C116A"
modifier_sign = "="
value_observed = -3.87

[[record]]
mutant_id = "A24U A39C G92U U144G U148G"
modifier_sign = "≤"
value_observed = -4.2

[[record]]
mutant_id = "G50U A120U C125G"
modifier_sign = "="
value_observed = -0.502

[[record]]
mutant_id = "U4G A21U U31A G84U A115C"
modifier_sign = "="
value_observed = -3.65

[[record]]
mutant_id = "A30C C57G C63U G65U C96U A97U"
modifier_sign = "≤"
value_observed = -4.2

[[record]]
mutant_id = "C54U A150G"
modifier_sign = "="
value_observed = -0.995

[[record]]
mutant_id = "G48U A52U C93A C95U U145A"
modifier_sign = "≤"
value_observed = -4.2

[[record]]
mutant_id = "U4A C38U C57A A66G C96G C105A C123G G124A C129G"
modifier_sign = "≤"
value_observed = -4.2

[[record]]
mutant_id = "U9C A47U"
modifier_sign = "="
value_observed = -3.94

[[record]]
mutant_id = "C14U A29U G71A G88C C93A"
modifier_sign = "≤"
value_observed = -4.2

[[record]]
mutant_id = "U9A A16U A19U C27G U77C G84A G100C G133U G141A U145A"
modifier_sign = "≤"
value_observed = -4.2

[[record]]
mutant_id = "U15A A17C C32G A60G C99U C116U"
modifier_sign = "≤"
value_observed = -4.2

[[record]]
mutant_id = "C8U G92U"
modifier_sign = "="
value_observed = -3.35

[[record]]
mutant_id = "A23U A37U A97U U111C"
modifier_sign = "≤"
value_observed = -4.2

[[record]]
mutant_id = "C93A A98G"
modifier_sign = "="
value_observed = -1.81

[[record]]
mutant_id = "A49C G65C G88U C96A"
modifier_sign = "="
value_observed = -4.03

[[record]]
mutant_id = "U4A A21C G80A"
modifier_sign = "="
value_observed = -0.338

[[record]]
mutant_id = "G92C A98G A115U"
modifier_sign = "="
value_observed = -2.44

[[record]]
mutant_id = "C14A G84A"
modifier_sign = "="
value_observed = -1.24

[[record]]
mutant_id = "A16U A19U A40G"
modifier_sign = "≤"
value_observed = -4.2

[[record]]
mutant_id = "A3U A17G A49C C93A U104A A119C C132U G141C U145G"
modifier_sign = "≤"
value_observed = -4.2

